# Target Entity: recombinant TFPI of the FXa restoring assay (human, mouse or rat; species not stated for Tables 9 and 10)
# Experimental Details: cell-based or functional assay
Field: label. Allowed values: met (IC 50, FXa restoring assay < 0.4 mg/L) or not met (IC 50, FXa restoring assay >= 0.4 mg/L).

Binder	Label Value
2A8 HC S31P (Fab, V domains shown) VH: QVQLVESGGGLVQPGGSLRLSCAASGFTFRPYGMSWVRQAPGKGLEWVSSIRGSSSSTYYADSVKGRFTISRDNSKNTLYLQMNSLRAEDTAVYYCARKYRYWFDYWGQGTLVTVSS VL: DIELTQPPSVSVAPGQTARISCSGDNLRNYYAHWYQQKPGQAPVVVIYYDNNRPSGIPERFSGSNSGNTATLTISGTQAEDEADYYCQSWDDGVPVFGGGTKLTVLG	met
2A8 LC D91L (Fab, V domains shown) VH: QVQLVESGGGLVQPGGSLRLSCAASGFTFRSYGMSWVRQAPGKGLEWVSSIRGSSSSTYYADSVKGRFTISRDNSKNTLYLQMNSLRAEDTAVYYCARKYRYWFDYWGQGTLVTVSS VL: DIELTQPPSVSVAPGQTARISCSGDNLRNYYAHWYQQKPGQAPVVVIYYDNNRPSGIPERFSGSNSGNTATLTISGTQAEDEADYYCQSWLDGVPVFGGGTKLTVLG	met
2A8 LC D91K (Fab, V domains shown) VH: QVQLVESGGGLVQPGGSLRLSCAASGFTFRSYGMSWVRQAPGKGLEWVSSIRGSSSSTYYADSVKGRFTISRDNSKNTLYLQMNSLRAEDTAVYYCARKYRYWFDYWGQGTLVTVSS VL: DIELTQPPSVSVAPGQTARISCSGDNLRNYYAHWYQQKPGQAPVVVIYYDNNRPSGIPERFSGSNSGNTATLTISGTQAEDEADYYCQSWKDGVPVFGGGTKLTVLG	met
2A8 HC I51E (Fab, V domains shown) VH: QVQLVESGGGLVQPGGSLRLSCAASGFTFRSYGMSWVRQAPGKGLEWVSSERGSSSSTYYADSVKGRFTISRDNSKNTLYLQMNSLRAEDTAVYYCARKYRYWFDYWGQGTLVTVSS VL: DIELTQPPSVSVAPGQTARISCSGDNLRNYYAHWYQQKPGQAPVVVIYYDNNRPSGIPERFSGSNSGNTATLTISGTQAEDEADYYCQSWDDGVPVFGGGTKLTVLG	not met
